Listed variants paired with reported protein stability index
B1: C19orf51 (parent)
chain: FAPQTGARPSETFARFCKSQESAL

- Variants of: B1
- assay_notes: protein stability index of a GFP-peptide fusion (GPS, HEK-293T) (PSI 1-6); higher = more stable;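 also: lentivirally expressed fusions sorted by FACS into six bins by GFP to DsRed ratio, PSI derived from sequencing read proportions per bin multiplied by bin number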
- details: c terminus: a fixed tail appended
parameter: protein stability index

In [3]: df
Out[3]:
   mutation_code  recorded_number
0           L24H             1.83
1           C17Q             1.35
2            A2H                1
3            G6L             2.07
4           F13V             2.92
